Values were extracted from paper PMC7265341.

Biological target: CDK10/Cyclin L2 (Homo sapiens, UniProt Q15131)
Sequence (Q15131 whole entry): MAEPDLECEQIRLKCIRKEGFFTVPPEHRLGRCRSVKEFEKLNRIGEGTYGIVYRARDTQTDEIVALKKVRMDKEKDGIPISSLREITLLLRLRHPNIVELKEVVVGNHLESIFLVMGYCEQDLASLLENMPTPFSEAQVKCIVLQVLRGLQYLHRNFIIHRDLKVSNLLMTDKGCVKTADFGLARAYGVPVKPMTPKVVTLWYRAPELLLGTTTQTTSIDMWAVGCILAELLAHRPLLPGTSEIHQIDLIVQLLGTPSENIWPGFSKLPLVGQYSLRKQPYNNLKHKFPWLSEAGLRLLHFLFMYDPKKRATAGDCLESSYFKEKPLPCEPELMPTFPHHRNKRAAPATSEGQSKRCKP
Experiment: NanoBRET live-cell target engagement, CDK10-NanoLuc/Cyclin L2 in HEK-293
Details: read-out: CDK10/L2 Inhibition at 10µM (%), 10µM; independent experiment 2
measured.endpoint: inhibition at 10 µM (%)
Write the answer as a number in %, unit excluded.

Find the measured inhibition at 10 µM of COCCN1CCN(Cc2ccc(-c3n[nH]c4c3C(=O)c3c(NC(=O)NN5CCOCC5)cccc3-4)cc2)CC1 and report it.
85.1

For CC(=O)c1c(C)c2cnc(Nc3ccc(N4CCNCC4)cn3)nc2n(C2CCCC2)c1=O , write its inhibition at 10 µM.
24.1

Supply inhibition at 10 µM value. Item: CN1CCN(c2ccc(Nc3ncc4cc5n(c4n3)C3(CCCCC3)CNC5=O)nc2)CC1
9.9

For the compound CN1C/C=C/CCOc2cccc(c2)-c2ccnc(n2)Nc2cccc(c2)C1 , give its measured inhibition at 10 µM value.
94.4

Return reported inhibition at 10 µM. Input compound: CC(C)CC(=O)Nc1[nH]nc2c1CN(C(=O)C1CCN(C)CC1)C2(C)C
27.2

###

Biological target: CDK18/Cyclin Y (Homo sapiens, UniProt Q07002)
Sequence (Q07002 whole entry): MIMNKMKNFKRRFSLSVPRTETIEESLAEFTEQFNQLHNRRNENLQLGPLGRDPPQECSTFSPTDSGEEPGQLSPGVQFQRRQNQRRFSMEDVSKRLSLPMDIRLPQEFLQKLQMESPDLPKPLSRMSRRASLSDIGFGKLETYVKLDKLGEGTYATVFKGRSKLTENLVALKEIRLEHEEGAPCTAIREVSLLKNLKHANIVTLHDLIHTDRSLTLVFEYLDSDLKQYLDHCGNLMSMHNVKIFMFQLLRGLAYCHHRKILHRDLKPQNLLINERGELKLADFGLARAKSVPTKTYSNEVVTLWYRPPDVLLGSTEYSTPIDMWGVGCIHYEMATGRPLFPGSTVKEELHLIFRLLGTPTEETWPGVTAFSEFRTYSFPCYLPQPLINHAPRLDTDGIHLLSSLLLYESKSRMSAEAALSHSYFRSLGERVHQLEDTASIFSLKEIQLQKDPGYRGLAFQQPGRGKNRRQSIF
Sequence (Q8ND76 whole entry partner): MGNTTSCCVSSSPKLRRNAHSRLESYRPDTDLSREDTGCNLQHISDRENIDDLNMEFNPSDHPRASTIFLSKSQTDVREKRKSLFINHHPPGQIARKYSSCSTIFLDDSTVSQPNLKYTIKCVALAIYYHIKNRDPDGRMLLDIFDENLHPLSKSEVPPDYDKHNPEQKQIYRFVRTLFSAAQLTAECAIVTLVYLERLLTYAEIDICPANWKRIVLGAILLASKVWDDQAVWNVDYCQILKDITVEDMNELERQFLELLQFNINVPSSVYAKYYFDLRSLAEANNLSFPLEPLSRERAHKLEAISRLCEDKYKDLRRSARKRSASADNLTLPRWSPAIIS
Assay: NanoBRET live-cell target engagement, CDK18-NanoLuc/Cyclin Y in HEK-293
Format: binding
Details: CDK18/Y; 10µM; average of replicates
measured.endpoint: Inhibition at 10µM (%) Average
Numbers only here, please. The scale is %.

Identify the reported Inhibition at 10µM (%) Average for the following entry. CNC1CCN(C(=O)c2ccc(Nc3ncc(F)c(-c4cnc(C)n4C(C)C)n3)cc2)C1 (stereo not shown) [AZD5597]
97.5

// fetch Inhibition at 10µM (%) Average given entry O=C(Nc1c[nH]nc1-c1ccccn1)c1nn(C2CCNCC2)cc1Cl [BDP5290]
13.2

Identify Inhibition at 10µM (%) Average associated with the compound CC(C)c1cnn2c(NCc3ccccc3)cc(N[C@@H](CO)[C@H](O)CO)nc12 [BS-194]
85.6

Item CCC(CO)Nc1nc(Nc2cccc(-c3ccccn3)c2)c2ncn(C(C)C)c2n1.Cl.O [(R) - DRF053] : provide Inhibition at 10µM (%) Average
39.4

###

Answer each item with its documented CDK4/D1 Inhibition at 10µM (%).
Target: CDK4/Cyclin D1 (Homo sapiens)
Assay: NanoBRET live-cell target engagement, NanoLuc-CDK4/Cyclin D1 in HEK-293
Type: binding
Details: 10µM; independent experiment 1
Give just the numeric value; % need not be written.

Please supply the value of reported CDK4/D1 Inhibition at 10µM (%) for the item O=C1NC(=NCc2cccs2)S/C1=C\c1ccc2ncccc2c1
11.3

Fill in reported CDK4/D1 Inhibition at 10µM (%) for this entry: Cc1c(Br)c(Br)c2c3c1nc(N1CCNCC1)n3CCC2.Cl [SEL 120-34A]
12.4

Supply reported CDK4/D1 Inhibition at 10µM (%) belonging to this compound: O=C1NCCc2[nH]c(-c3ccncc3)cc21
22.1

Provide measured CDK4/D1 Inhibition at 10µM (%) value, entry: CN(C)C/C=C/C(=O)Nc1ccc(C(=O)Nc2cccc(Nc3ncc(Cl)c(-c4c[nH]c5ccccc45)n3)c2)cc1
13.3

###

Target: CDK17/Cyclin Y (Homo sapiens)
Assay: NanoBRET live-cell target engagement, CDK17-NanoLuc/Cyclin Y in HEK-293
Format: binding
Settings: independent experiment 1; read-out: CDK17/Y IC50
measured.endpoint: IC50 (nM)
Record the value in nM, omitting the unit from your answer.

State its IC50 for this molecule: CN1CCN(c2ccc(Nc3ncc4cc5n(c4n3)C3(CCCCC3)CNC5=O)nc2)CC1
113

Provide measured IC50 value, entry: CN1C/C=C/CCOc2cccc(c2)-c2ccnc(n2)Nc2cccc(c2)C1
50

// Input: COCCN1CCN(Cc2ccc(-c3n[nH]c4c3C(=O)c3c(NC(=O)NN5CCOCC5)cccc3-4)cc2)CC1 . Output its IC50 only.
7.9

###

Biological target: CDK1/Cyclin E1 (Homo sapiens, UniProt P06493)
Sequence (P06493 whole entry): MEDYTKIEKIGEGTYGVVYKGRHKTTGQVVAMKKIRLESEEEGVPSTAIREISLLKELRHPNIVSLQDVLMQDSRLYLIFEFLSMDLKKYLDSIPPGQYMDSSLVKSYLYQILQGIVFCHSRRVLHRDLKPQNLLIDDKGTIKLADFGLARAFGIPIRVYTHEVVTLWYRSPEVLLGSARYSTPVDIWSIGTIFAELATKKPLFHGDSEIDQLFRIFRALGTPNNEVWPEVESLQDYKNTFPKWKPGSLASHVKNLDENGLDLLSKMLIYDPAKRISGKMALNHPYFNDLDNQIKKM
Sequence (P24864 whole entry partner): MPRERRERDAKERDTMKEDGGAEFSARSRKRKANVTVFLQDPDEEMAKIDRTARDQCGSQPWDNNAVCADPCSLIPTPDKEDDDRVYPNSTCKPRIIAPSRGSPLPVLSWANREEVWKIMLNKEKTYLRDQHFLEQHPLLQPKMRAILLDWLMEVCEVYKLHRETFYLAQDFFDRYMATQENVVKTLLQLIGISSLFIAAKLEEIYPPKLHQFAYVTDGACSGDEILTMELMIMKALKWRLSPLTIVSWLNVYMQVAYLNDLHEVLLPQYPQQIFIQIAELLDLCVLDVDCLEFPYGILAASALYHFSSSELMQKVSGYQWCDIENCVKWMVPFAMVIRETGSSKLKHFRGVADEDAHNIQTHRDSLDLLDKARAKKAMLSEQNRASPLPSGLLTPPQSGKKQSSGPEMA
Experiment: NanoBRET live-cell target engagement, CDK1-NanoLuc/Cyclin E1 in HEK-293
Format: binding
Conditions: live HEK-293, 2 h; mean ± S.E.M. (n=3) or mean (n=2); read-out: IC50 for CDK/cyclin complexes, CDK1/E1
measured.endpoint: IC50 (nM)
// return numeric value only (unit: nM, not printed)

Give the reported value of IC50 for this record: CN1C/C=C/CCOc2cccc(c2)-c2ccnc(n2)Nc2cccc(c2)C1 [SB1317]
200

Dear colleague, please send me the reported IC50 for CC(C)c1cnn2c(NCc3ccccc3-n3cccn3)nc(OC3CCCNC3)nc12 (stereo not drawn) [LDC4297] when you can.
70

State its IC50: CNC1CCN(C(=O)c2ccc(Nc3ncc(F)c(-c4cnc(C)n4C(C)C)n3)cc2)C1 (stereo not drawn) [AZD5597]
9

###

Assign Inhibition at 10µM (%) to each entry below.
Molecular target: CDK8/Cyclin C (Homo sapiens)
Sequence (P49336 whole entry): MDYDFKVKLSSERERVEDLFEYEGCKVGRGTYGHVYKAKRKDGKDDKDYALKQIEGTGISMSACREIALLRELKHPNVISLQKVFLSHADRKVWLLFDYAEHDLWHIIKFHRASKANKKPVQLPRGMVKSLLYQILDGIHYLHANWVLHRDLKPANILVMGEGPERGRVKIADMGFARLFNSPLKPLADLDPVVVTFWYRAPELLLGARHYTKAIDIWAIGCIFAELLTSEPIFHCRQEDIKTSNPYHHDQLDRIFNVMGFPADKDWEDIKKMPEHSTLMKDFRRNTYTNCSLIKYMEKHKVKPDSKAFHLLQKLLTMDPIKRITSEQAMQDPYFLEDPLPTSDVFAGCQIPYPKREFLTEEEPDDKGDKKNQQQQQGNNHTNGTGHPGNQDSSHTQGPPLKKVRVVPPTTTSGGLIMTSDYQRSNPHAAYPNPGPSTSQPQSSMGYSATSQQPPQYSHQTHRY
Sequence (P24863 whole entry partner): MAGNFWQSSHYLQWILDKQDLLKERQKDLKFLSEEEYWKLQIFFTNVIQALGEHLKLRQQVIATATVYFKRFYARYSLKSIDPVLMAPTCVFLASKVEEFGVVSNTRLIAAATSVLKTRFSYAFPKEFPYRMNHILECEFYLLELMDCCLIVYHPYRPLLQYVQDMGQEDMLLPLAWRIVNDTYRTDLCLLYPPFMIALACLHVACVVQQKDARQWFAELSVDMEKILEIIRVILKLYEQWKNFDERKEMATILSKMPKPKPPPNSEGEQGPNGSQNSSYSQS
Experiment: NanoBRET live-cell target engagement, NanoLuc-CDK8/Cyclin C in HEK-293
Type: binding
Settings: CDK8/C; experiment 1
Provide the reading as a plain figure in %.

Give the reported Inhibition at 10µM (%) for this molecule. CN1CCC(c2c(O)cc(O)c3c(=O)cc(-c4ccccc4Cl)oc23)C1CO (stereo not drawn) [P276-00]
82.7

Tell us which Inhibition at 10µM (%) value is on record for CC(C)c1c2cc(-c3ccnc(N[C@H]4CC[C@H](NC5CCOCC5)CC4)n3)ccc2nn1C [LY2857785]
88.4

Item CC(C)c1cnn2c(NCc3ccccc3-n3cccn3)nc(OC3CCCNC3)nc12 (stereo not drawn) [LDC4297] : provide Inhibition at 10µM (%)
14.8

Please give measured Inhibition at 10µM (%) of the following entry: CNc1nc(C)c(-c2nc(Nc3cccc(S(N)(=O)=O)c3)ncc2F)s1 [CDKI-73]
81.5

For CCn1cnc2c(Nc3cccc(Cl)c3)nc(N[C@@H]3CCCC[C@@H]3N)nc21 [CGP74514A] , write its Inhibition at 10µM (%).
5.8

Give the reported value of Inhibition at 10µM (%) for this record: CS(=O)(=O)N1CCC(NC(=O)c2[nH]ncc2NC(=O)c2c(Cl)cccc2Cl)CC1 [NVP-LCQ195]
33.3

###

Target: CDK17/Cyclin Y (Homo sapiens, UniProt Q00537)
Sequence (Q00537 whole entry, one chain of several): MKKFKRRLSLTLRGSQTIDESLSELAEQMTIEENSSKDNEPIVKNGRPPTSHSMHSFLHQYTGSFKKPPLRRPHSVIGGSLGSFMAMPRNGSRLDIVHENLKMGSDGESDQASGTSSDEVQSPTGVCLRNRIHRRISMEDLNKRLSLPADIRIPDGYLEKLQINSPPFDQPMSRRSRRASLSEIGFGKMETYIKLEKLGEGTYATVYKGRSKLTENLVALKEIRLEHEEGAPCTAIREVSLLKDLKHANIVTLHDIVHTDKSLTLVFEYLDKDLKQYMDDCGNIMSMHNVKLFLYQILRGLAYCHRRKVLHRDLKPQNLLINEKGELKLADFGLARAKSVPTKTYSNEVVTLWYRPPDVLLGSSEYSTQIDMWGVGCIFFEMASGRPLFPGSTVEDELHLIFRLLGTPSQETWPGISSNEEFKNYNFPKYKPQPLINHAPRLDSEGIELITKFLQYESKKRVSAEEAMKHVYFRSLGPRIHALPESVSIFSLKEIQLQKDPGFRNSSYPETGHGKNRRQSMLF
Test: NanoBRET live-cell target engagement, CDK17-NanoLuc/Cyclin Y in HEK-293
Format: binding
Conditions: CDK17/Y; experiment 2; read-out: Inhibition at 10µM (%)
measured.endpoint: inhibition at 10 µM (%)
State the answer as a number, implicitly in %.

Determine from records and report inhibition at 10 µM for CNC(=O)c1nn(C)c2c1C(C)(C)Cc1cnc(Nc3ccc(N4CCN(C)CC4)cc3)nc1-2
88.9

Read the entry NS(=O)(=O)c1ccc(Nc2nc(OCC3CCCCC3)c3nc[nH]c3n2)cc1 and write its reported inhibition at 10 µM.
49.2

Give the measured inhibition at 10 µM for N#CCNC(=O)c1ccc(-c2ccnc(Nc3ccc(N4CCOCC4)cc3)n2)cc1
59.3

Tell me inhibition at 10 µM reported for CN1CCN(Cc2ccc(NC(=O)Nc3ccc(Oc4ccnc(N)n4)cc3)cc2C(F)(F)F)CC1
90.7

###

Assignment: determine reported pIC50 for the given compounds.
Target: CDK4/Cyclin D1 (Homo sapiens, UniProt P11802)
Sequence (P11802 whole entry): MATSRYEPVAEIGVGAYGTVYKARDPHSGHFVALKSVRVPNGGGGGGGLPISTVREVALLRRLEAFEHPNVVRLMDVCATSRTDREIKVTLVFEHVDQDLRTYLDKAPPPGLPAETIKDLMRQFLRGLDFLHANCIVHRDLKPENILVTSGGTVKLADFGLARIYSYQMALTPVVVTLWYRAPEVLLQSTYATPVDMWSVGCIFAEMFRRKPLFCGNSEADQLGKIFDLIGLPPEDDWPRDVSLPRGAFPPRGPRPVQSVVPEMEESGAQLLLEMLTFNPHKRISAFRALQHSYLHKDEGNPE
Sequence (P24385 whole entry partner): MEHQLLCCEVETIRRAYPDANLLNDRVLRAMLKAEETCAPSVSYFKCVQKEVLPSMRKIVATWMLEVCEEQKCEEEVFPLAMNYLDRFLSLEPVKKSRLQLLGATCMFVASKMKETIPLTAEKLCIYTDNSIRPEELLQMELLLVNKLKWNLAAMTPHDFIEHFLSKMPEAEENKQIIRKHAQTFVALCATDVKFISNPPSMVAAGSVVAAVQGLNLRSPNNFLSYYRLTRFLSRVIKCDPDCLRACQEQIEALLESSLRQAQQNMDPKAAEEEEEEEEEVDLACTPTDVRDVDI
Assay: NanoBRET live-cell target engagement, NanoLuc-CDK4/Cyclin D1 in HEK-293
Format: binding
Settings: average (± SEM where n=3); read-out: CDK4/D1 IC50
Please note pIC50 is a logarithmic value: minus log10 of concentration in mol/L. Answer with that number alone.

Using the record for COCCN1CCN(Cc2ccc(-c3n[nH]c4c3C(=O)c3c(NC(=O)NN5CCOCC5)cccc3-4)cc2)CC1 , state its measured pIC50.
8.00

Using the record for CC(C)CC(=O)Nc1[nH]nc2c1CN(C(=O)C1CCN(C)CC1)C2(C)C , state its measured pIC50.
6.49

Give the reported pIC50 for this compound. CN1C/C=C/CCOc2cccc(c2)-c2ccnc(n2)Nc2cccc(c2)C1
6.85

###

For each record, write down the corresponding inhibition at 10 µM.
Target: CDK18/Cyclin Y (Homo sapiens, UniProt Q07002)
Assay: NanoBRET live-cell target engagement, CDK18-NanoLuc/Cyclin Y in HEK-293
Assay type: binding
Settings: CDK18/Y; experiment 1; read-out: Inhibition at 10µM (%)
Answer format: numeric, % implied, no suffix.

Indicate its recorded inhibition at 10 µM; the molecule in question is CN1CCN(Cc2ccc(NC(=O)Nc3ccc(Oc4ccnc(N)n4)cc3)cc2C(F)(F)F)CC1
88.2

Please indicate inhibition at 10 µM recorded for Cn1cc(-c2ccc(-c3cncc(Cl)c3N3CCC4(CCNC4=O)CC3)cc2)cn1
2.3

Specify reported inhibition at 10 µM for the molecule shown: CC(C)c1cnn2c(NCc3ccccc3)cc(NC[C@H]3CCNC[C@@H]3O)nc12
75.7

Give the value of inhibition at 10 µM reported for the following: CNC(=O)c1nn(C)c2c1C(C)(C)Cc1cnc(Nc3ccc(N4CCN(C)CC4)cc3)nc1-2
83.1

Identify the reported inhibition at 10 µM for the following entry. COc1ccc(F)cc1-c1cc(NC(=O)C2CCCNC2)ncc1Cl (stereo not shown)
93.5

Return inhibition at 10 µM for the following molecule: NS(=O)(=O)c1ccc(Nc2nc(OCC3CCCCC3)c3nc[nH]c3n2)cc1
20.4

Give the reported value of inhibition at 10 µM for this record: CC(C)N1CCN(c2ccc(Nc3ncc4cc5n(c4n3)C3(CCCCC3)CNC5=O)nc2)CC1
22.1

# return recorded inhibition at 10 µM for input CN1CCN(c2ccc(Nc3ncc4cc(C#N)c(=O)n(C5CCCC5)c4n3)cc2)CC1
27.5

Return inhibition at 10 µM for the following molecule: N#CCNC(=O)c1ccc(-c2ccnc(Nc3ccc(N4CCOCC4)cc3)n2)cc1
14.9

Check the records and state inhibition at 10 µM for CC(C)(C)c1nc(-c2cccc(NS(=O)(=O)c3c(F)cccc3F)c2F)c(-c2ccnc(N)n2)s1
1.7
